The origin of these recorded values is paper PMC5647227.

Target or system UniProtKB P33535: recorded pKi listed per item.
Sequence (P33535 whole entry): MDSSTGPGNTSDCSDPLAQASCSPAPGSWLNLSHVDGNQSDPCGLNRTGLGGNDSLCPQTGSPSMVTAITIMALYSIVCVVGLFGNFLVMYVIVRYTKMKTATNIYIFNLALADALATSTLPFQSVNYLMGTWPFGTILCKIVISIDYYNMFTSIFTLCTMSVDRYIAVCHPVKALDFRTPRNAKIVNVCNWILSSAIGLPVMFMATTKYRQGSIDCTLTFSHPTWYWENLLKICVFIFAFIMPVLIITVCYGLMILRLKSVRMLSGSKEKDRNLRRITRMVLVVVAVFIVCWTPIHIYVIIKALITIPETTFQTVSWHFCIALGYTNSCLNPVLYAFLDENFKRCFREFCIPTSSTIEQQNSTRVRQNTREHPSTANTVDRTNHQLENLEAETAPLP
FYI, pKi means -log10 of a concentration in mol per litre.

Below, 2 compounds whose answers are already recorded.
structure_notation | assay_target | pKi
Cc1cc(O)cc(C)c1C[C@H](N)C(=O)N[C@H](CCCNC(=N)N)C(=O)N[C@H]1Cc2ccccc2CN(CCC(=O)N(Cc2cc(C(F)(F)F)cc(C(F)(F)F)c2)C2CC2)C1=O | UniProtKB P33535 | 7.33
Cc1cc(O)cc(C)c1C[C@H](N)C(=O)N[C@H](CCCNC(=N)N)C(=O)N[C@H]1Cc2ccccc2CN(CCC(=O)N(C)Cc2ccc3ccccc3c2)C1=O | UniProtKB P33535 | 9.40

Find the recorded pKi belonging to Cc1cc(O)cc(C)c1C[C@H](N)C(=O)N[C@H](CCCNC(=N)N)C(=O)N[C@H]1Cc2ccccc2CN(CC(=O)N2Cc3ccccc3C2)C1=O and report it.
10.22

Could you share which pKi value was measured for Cc1cc(O)cc(C)c1C[C@H](N)C(=O)N[C@H](CCCNC(=N)N)C(=O)N[C@H]1Cc2ccccc2CN(CCC(=O)N(Cc2ccccc2)C2CC2)C1=O ?
8.57

Can you look up the measured pKi of Cc1cc(O)cc(C)c1C[C@H](N)C(=O)N[C@H](CCCNC(=N)N)C(=O)N[C@H]1Cc2ccccc2CN(CCC(=O)N2Cc3ccccc3C2)C1=O for me?
9.70
